Sourced from patent US7687609B2

- Test system: tested galectin molecules (galectin-1, 3, 8N, 8C, 9N and 9C)
- assay comment: FAC affinity test, statements on the whole panel of tested galectins
- Assay type: binding
- recorded conditions: Table 3, whole galectin panel
property: binding to the tested galectin molecules (in words)

CC(=O)NC1C(O)OC(COS(=O)(=O)[O-])C(OC2OC(COS(=O)(=O)[O-])C(O)C(OC3OC(COS(=O)(=O)[O-])C(OC4OC(COS(=O)(=O)[O-])C(O)C(O)C4O)C(O)C3NC(C)=O)C2O)C1O.[Na+].[Na+].[Na+].[Na+] (stereo not drawn) = did not bind
CC(=O)N[C@H]1[C@H](O[C@H]2[C@@H](O)[C@@H](COS(=O)(=O)O)O[C@@H](O[C@H]3[C@H](O)[C@@H](NC(C)=O)C(O)O[C@@H]3COS(=O)(=O)O)[C@@H]2O)O[C@H](COS(=O)(=O)O)[C@@H](O)[C@@H]1O (stereo partly drawn) = did not bind

----------
V − V0 Value for assorted molecules
- system name: Galectin-3 (Homo sapiens, UniProt P17931)
- Construct: made in house
- Sequence (P17931 whole entry): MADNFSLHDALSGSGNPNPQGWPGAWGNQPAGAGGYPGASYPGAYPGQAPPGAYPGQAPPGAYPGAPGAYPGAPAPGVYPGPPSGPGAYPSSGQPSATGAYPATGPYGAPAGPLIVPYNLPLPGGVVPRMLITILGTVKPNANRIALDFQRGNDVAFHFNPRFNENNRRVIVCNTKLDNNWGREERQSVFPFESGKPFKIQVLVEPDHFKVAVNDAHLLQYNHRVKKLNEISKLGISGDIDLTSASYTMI
- assay comment: FAC affinity test on galectin-immobilized column
- Assay type: binding
- recorded conditions: pyridyl-aminated carbohydrate; galectin-3 immobilized 0.5 mg/ml; less than 5 μl = below interaction detection limit

Challenge: Missing value: V − V0 Value, Galectin-3 (Homo sapiens, UniProt P17931), entry CC(=O)N[C@H]1[C@H](O[C@H]2[C@H](O)[C@@H](O)[C@H](O[C@H]3[C@@H](O)[C@@H](CO)OC(O)[C@@H]3NC(C)=O)O[C@@H]2C(=O)O)O[C@H](CO)[C@H](O)[C@@H]1O (stereo partly drawn) . Fill in?
Response given: <5.0 µL

Challenge: What measured V − V0 Value is associated with CC(=O)N[C@H]1[C@H](O[C@H]2[C@H](O)[C@@H](O)[C@H](O[C@H]3[C@@H](O)[C@@H](CO)OC(O)[C@@H]3NC(C)=O)O[C@@H]2C(=O)O)O[C@H](CO)[C@H](O)[C@@H]1O[C@@H]1O[C@H](C(=O)O)[C@@H](O)[C@H](O)[C@H]1O (stereo partly drawn) on Galectin-3 (Homo sapiens, UniProt P17931)?
Response given: <5.0 µL

Challenge: State its V − V0 Value on Galectin-3 (Homo sapiens, UniProt P17931): CC(=O)NC1C(O)OC(COS(=O)(=O)[O-])C(OC2OC(COS(=O)(=O)[O-])C(O)C(OC3OC(COS(=O)(=O)[O-])C(OC4OC(COS(=O)(=O)[O-])C(O)C(O)C4O)C(O)C3NC(C)=O)C2O)C1O.[Na+].[Na+].[Na+].[Na+] (stereo not drawn)
Response given: <5.0 µL
